Molecular target: HPr kinase/phosphorylase (Bacillus subtilis (strain 168), UniProt O34483)
Sequence (O34483 whole entry): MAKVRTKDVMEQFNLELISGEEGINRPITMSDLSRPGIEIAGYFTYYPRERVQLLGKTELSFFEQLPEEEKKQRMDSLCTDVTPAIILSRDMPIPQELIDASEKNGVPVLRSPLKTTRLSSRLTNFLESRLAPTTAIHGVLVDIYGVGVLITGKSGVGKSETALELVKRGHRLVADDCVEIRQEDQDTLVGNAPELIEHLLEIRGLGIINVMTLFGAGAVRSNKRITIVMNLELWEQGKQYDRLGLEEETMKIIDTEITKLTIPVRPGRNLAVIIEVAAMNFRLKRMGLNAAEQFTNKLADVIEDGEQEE
Assay: Inhibition of bifunctional enzyme HPr kinase/phosphatase from Bacillus subtilis at pH 8.0 and hill coefficient of 2.9
measurement.name: pIC50
# log scale: pIC50 equals minus log10 of the concentration in mol/L

Inquiry: Provide the documented pIC50 with HPr kinase/phosphorylase (Bacillus subtilis (strain 168), UniProt O34483) as the system for N=c1n(CC(=O)N/N=C/c2ccc(/C=N/NC(=O)Cn3c(=N)n(Cc4ccccc4)c4ccccc43)cc2)c2ccccc2n1Cc1ccccc1
Reply text: 4.74
